system: BMSC (primary human bone marrow mesenchymal stromal cells); test: absolute EC50 for viability; higher = less sensitive

[
  {
    "COMPOUND": "Cc1[nH]c2ccccc2c1CCNCc1ccc(/C=C/C(=O)NO)cc1",
    "absolute EC50 for viability": "0.123 µM"
  },
  {
    "COMPOUND": "CC(=O)N(O)CCCCCNC(=O)CCC(=O)N(O)CCCCCNC(=O)CCC(=O)N(O)CCCCCN",
    "absolute EC50 for viability": "> 10 µM"
  },
  {
    "COMPOUND": "O=C(O)C1(C(=O)O)CCC1.[NH2-].[NH2-].[Pt+2]",
    "absolute EC50 for viability": "> 100 µM"
  },
  {
    "COMPOUND": "CC1(C)C(C(=O)Nc2ccc(S(=O)(=O)c3ccc(NC(=O)C4C(C)(C)C4(C)C)cc3)cc2)C1(C)C",
    "absolute EC50 for viability": "> 10 µM"
  },
  {
    "COMPOUND": "CCc1cnn2c(NCc3ccc[n+]([O-])c3)cc(N3CCCC[C@H]3CCO)nc12",
    "absolute EC50 for viability": "> 1 µM"
  },
  {
    "COMPOUND": "CO[C@H]1C[C@@H]2CC[C@@H](C)[C@@](O)(O2)C(=O)C(=O)N2CCCC[C@H]2C(=O)O[C@H]([C@H](C)C[C@@H]2CC[C@@H](OC(=O)C(C)(CO)CO)[C@H](OC)C2)CC(=O)[C@H](C)/C=C(\\C)[C@@H](O)[C@@H](OC)C(=O)[C@H](C)C[C@H](C)/C=C/C=C/C=C/1C",
    "absolute EC50 for viability": "> 0.1 µM"
  },
  {
    "COMPOUND": "Cn1c(=O)n(-c2ccc(C(C)(C)C#N)cc2)c2c3cc(-c4cnc5ccccc5c4)ccc3ncc21",
    "absolute EC50 for viability": "0.114 µM"
  },
  {
    "COMPOUND": "O=C1CCc2c(Oc3ccc4c(c3)[C@@H]3[C@H](O4)[C@H]3c3nc4cc(C(F)(F)F)ccc4[nH]3)ccnc2N1",
    "absolute EC50 for viability": "> 10 µM"
  },
  {
    "COMPOUND": "COc1cc(Nc2ncc3c(n2)-c2ccc(Cl)cc2C(c2c(F)cccc2OC)=NC3)ccc1C(=O)O",
    "absolute EC50 for viability": "> 10 µM"
  },
  {
    "COMPOUND": "CC[C@]1(O)C[C@@H]2CN(CCc3c([nH]c4ccccc34)[C@@](C(=O)OC)(c3cc4c(cc3OC)N(C)[C@H]3[C@@](O)(C(=O)OC)[C@H](OC(C)=O)[C@]5(CC)C=CCN6CC[C@]43[C@@H]65)C2)C1",
    "absolute EC50 for viability": "> 1 µM"
  },
  {
    "COMPOUND": "O=C1Cc2cc(C(=O)NC3C[C@H]4CC[C@@H](C3)N4S(=O)(=O)CC3CCN(CCCC(F)(F)F)CC3)c(Cl)cc2N1 (stereo partly drawn)",
    "absolute EC50 for viability": "> 10 µM"
  },
  {
    "COMPOUND": "COc1cccc(-c2ccc(NC(=O)C3=C(C(=O)O)CCC3)c(F)c2)c1",
    "absolute EC50 for viability": "> 10 µM"
  },
  {
    "COMPOUND": "CC(C)Oc1ccc(C(=O)N[C@H](CNC(=O)CN(C)C)Cc2ccc(-c3cn4cccc([C@H](C)O)c4n3)cc2)cc1Cl",
    "absolute EC50 for viability": "9.93 µM"
  }
]

FYI, the data here is from the supplement of paper PMC9103864.
